target: Recombinant human PDK1 enzyme (aa 52-556) (Homo sapiens (Human)); assay: PDK1 kinase assay; conditions: in vitro kinase assay, His6-PDK1 (aa 52-556), PDKtide, P33-ATP
Sequence (O15530 52-556): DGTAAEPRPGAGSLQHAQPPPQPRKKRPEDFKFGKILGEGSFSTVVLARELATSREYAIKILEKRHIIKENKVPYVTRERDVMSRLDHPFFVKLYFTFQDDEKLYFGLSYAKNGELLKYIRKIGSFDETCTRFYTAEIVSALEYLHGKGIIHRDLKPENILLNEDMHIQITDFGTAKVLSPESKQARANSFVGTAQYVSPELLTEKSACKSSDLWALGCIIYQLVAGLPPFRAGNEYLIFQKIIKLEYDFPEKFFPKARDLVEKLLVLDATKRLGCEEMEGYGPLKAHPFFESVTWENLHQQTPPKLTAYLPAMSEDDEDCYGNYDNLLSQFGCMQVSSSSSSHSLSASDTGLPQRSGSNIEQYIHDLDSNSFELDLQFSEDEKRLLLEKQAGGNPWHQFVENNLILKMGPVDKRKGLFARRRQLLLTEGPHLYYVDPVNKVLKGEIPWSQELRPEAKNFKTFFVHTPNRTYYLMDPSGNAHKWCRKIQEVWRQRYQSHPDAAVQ
Endpoint Name: log10 IC50 (log10 of the value in nM)

# Molecule, log10 IC50
rows = [
    ("CN(C)CCOc1ccnc2ccc(C#CCNC(=O)c3cncn(Cc4ccc(F)c(F)c4)c3=O)cc12 [I-99]", 1.56),
    ("CN(C)CCNc1ncnc2ccc(C#CCNC(=O)c3cncn(Cc4ccc(F)c(F)c4)c3=O)cc12 [II-10]", 2.36),
    ("CN(C)CCNc1ccnc2ccc(C#CCNC(=O)c3cccn(Cc4ccc(F)c(F)c4)c3=O)cc12 [I-118]", 2.93),
    ("O=C(NCC#Cc1ccc2nccc(OCC3CCCCO3)c2c1)c1cccn(Cc2ccc(F)c(F)c2)c1=O (stereo not shown) [I-109]", 2.22),
    ("CNc1ncnc2cc(Cl)c(C#CCNC(=O)c3cncn(Cc4ccc(F)c(F)c4)c3=O)cc12 [I-5]", 2.36),
    ("O=C(NCC#Cc1ccc2ncnc(NC3CCN(Cc4ccccc4)CC3)c2c1)c1cncn(Cc2ccc(F)c(F)c2)c1=O [II-23]", 2.15),
    ("COCCCNc1ncnc2ccc(C#CCNC(=O)c3cncn(Cc4ccc(F)c(F)c4)c3=O)cc12 [II-14]", 2.20),
    ("COCCN1CCC(Nc2cnc3ccc(C#CCNC(=O)c4cccn([C@@H](CO)c5ccc(F)c(F)c5)c4=O)cc3n2)CC1 [I-48]", 0.48),
    ("CCN1CCC(Nc2cnc3ccc(C#CCNC(=O)c4cccn([C@H](CO)c5cccc(F)c5)c4=O)cc3c2)CC1 [I-76]", 0.30),
    ("CN1CCCC1CCNc1ncnc2ccc(C#CCNC(=O)c3cccn(Cc4ccc(F)c(F)c4)c3=O)cc12 (stereo not shown) [II-39]", 2.14),
    ("COCCN1CCC(Nc2cnc3ccc(C#CCNC(=O)c4cncn(Cc5ccc(F)c(F)c5)c4=O)cc3c2)CC1 [I-73]", 0.60),
    ("CN(CCc1ccccc1)c1ncnc2ccc(C#CCNC(=O)c3cncn(Cc4ccc(F)c(F)c4)c3=O)cc12 [II-3]", 2.13),
    ("O=C(NCC#Cc1ccc2nccc(OCC3CCCCO3)c2c1)c1cncn(Cc2ccc(F)c(F)c2)c1=O (stereo not shown) [I-108]", 2.06),
    ("CCN(C)c1c(C#N)cnc2ccc(C#CCNC(=O)c3cccn(Cc4ccc(F)c(F)c4)c3=O)cc12 [II-103]", 1.89),
    ("CN(C)CCCOc1cnc2ccc(C#CCNC(=O)c3cncn(Cc4ccc(F)c(F)c4)c3=O)cc2n1 [I-17]", 1.98),
    ("CN(C)C(=O)CNc1ncnc2ccc(C#CCNC(=O)c3cccn(Cc4ccc(F)c(F)c4)c3=O)cc12 [II-50]", 2.26),
]

Values from patent US8575203B2
